Tested System: Adenosine receptor A3 (Homo sapiens)
Sequence (P0DMS8 whole entry): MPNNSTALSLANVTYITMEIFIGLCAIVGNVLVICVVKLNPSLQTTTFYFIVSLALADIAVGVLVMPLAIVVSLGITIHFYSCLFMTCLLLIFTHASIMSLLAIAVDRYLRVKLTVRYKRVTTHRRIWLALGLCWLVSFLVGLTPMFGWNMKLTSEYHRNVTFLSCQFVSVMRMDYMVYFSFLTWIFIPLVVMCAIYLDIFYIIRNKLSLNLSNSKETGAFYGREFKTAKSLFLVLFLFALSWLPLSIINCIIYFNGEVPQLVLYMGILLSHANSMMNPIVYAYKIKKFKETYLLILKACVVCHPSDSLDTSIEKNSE
pKi: −log10 of the molar value.
Entries annotated with measured pKi

Compound	pKi
Nc1ncnc2c1ncn2CCO	< 4.00

Lab book: pKi of CC(O)Cn1cnc2c(N)ncnc21 (stereo not drawn) noted as < 4.00

Lab book: pKi of `Nc1ncnc2c1nc(Br)n2CCO` noted as < 4.00
